Origin of values: ChEMBL document CHEMBL4823254

This section presents compounds with their documented fold change (FC) values.
Biological target: Protein deacetylase HDAC6 (Mus musculus)
Test: Inhibition of HDAC6 in mouse Neuro2a cells assessed as fold increase in ratio of acetylated alpha-tubulin to alpha tubulin at 1 uM incubated for overnight by Western blot analysis
Type: cell-based
Conditions: time 12.0 hrs
readout_label: fold change (FC)

1) O=C(NO)c1ccc(CN2CCCc3cc(Cl)ccc32)cc1 : 1
2) O=C(NO)c1ccc(CN2CCCc3cc(Cl)ccc32)c(F)c1 : 1.38
3) O=C(NO)c1ccc(CN2C(=O)CCc3cc(Cl)ccc32)cc1 : 1.51
4) O=C(NO)c1ccc(CN2CCCc3cc(Cl)c(F)cc32)cc1 : 1.5
5) CN1CCc2c(c3ccccc3n2Cc2ccc(C(=O)NO)cc2)C1 : 1.11
6) NC(=O)c1ccc2c(c1)CCCCN2Cc1ccc(C(=O)NO)cc1 : 1.19
7) O=C(NO)c1ccc(CN2CCCc3cc(F)c(Cl)cc32)cc1 : 1.53
8) N#Cc1ccc2c(c1)CCCCN2Cc1ccc(C(=O)NO)cc1 : 0.98
9) O=C(NO)c1ccc(CN2CCCCc3cc(-c4cc[nH]n4)ccc32)cc1 : 1.78
10) O=C(NO)c1ccc(CN2CCCc3cc(Cl)c(Cl)cc32)cc1 : 1.54
11) O=C(NO)c1ccc(CN2CCCCc3ccccc32)cc1 : 0.78

====

Assay: Half life in mouse plasma
Type: ADME, cell-free
readout_label: half-life

1) NC(=O)c1ccc2c(c1)CCCN2Cc1ccc(C(=O)NO)cc1 : 2.12 h

====

Experiment: Tmax in C57BL/6J mouse plasma at 15 mg/kg, ip
Assay type: ADME, organism-based
readout_label: Tmax (min)

1) NC(=O)c1ccc2c(c1)CCCN2Cc1ccc(C(=O)NO)cc1 : 4.8

====

Experiment: Half life in C57BL/6J mouse plasma at 15 mg/kg, ip
Assay type: ADME, organism-based
readout_label: half-life (min)

1. NC(=O)c1ccc2c(c1)CCCN2Cc1ccc(C(=O)NO)cc1 : 26.4

====

Molecular target: Histone deacetylase 2 (Homo sapiens, UniProt Q92769)
Sequence (Q92769 whole entry): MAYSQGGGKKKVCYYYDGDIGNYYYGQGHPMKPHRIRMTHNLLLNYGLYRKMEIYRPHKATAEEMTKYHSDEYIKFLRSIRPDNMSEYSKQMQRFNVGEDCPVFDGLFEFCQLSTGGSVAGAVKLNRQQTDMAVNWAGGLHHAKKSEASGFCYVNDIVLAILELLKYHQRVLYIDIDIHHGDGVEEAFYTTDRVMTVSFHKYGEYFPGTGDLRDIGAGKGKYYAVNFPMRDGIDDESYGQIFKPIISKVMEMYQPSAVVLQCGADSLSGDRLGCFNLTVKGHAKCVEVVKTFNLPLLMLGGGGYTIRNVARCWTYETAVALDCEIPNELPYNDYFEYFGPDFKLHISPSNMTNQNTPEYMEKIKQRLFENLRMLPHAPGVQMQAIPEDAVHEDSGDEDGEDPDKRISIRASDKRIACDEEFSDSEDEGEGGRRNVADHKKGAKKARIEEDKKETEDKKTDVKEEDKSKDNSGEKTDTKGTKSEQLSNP
Test: Inhibition of recombinant human HDAC2 using Ac-GAK(Ac)-AMC as substrate preincubated for 10 mins followed by substrate addition and measured after 30 mins by fluorescence-based assay
readout_label: IC50 (nM)

1. O=C(NO)c1ccc(CN2CCCc3cc(Cl)ccc32)cc1 : 282
2. NC(=O)c1ccc2c(c1)CCCN2Cc1ccc(C(=O)NO)cc1 : 140

====

Target: Histone deacetylase 9 (Homo sapiens, UniProt Q9UKV0)
Sequence (Q9UKV0 whole entry): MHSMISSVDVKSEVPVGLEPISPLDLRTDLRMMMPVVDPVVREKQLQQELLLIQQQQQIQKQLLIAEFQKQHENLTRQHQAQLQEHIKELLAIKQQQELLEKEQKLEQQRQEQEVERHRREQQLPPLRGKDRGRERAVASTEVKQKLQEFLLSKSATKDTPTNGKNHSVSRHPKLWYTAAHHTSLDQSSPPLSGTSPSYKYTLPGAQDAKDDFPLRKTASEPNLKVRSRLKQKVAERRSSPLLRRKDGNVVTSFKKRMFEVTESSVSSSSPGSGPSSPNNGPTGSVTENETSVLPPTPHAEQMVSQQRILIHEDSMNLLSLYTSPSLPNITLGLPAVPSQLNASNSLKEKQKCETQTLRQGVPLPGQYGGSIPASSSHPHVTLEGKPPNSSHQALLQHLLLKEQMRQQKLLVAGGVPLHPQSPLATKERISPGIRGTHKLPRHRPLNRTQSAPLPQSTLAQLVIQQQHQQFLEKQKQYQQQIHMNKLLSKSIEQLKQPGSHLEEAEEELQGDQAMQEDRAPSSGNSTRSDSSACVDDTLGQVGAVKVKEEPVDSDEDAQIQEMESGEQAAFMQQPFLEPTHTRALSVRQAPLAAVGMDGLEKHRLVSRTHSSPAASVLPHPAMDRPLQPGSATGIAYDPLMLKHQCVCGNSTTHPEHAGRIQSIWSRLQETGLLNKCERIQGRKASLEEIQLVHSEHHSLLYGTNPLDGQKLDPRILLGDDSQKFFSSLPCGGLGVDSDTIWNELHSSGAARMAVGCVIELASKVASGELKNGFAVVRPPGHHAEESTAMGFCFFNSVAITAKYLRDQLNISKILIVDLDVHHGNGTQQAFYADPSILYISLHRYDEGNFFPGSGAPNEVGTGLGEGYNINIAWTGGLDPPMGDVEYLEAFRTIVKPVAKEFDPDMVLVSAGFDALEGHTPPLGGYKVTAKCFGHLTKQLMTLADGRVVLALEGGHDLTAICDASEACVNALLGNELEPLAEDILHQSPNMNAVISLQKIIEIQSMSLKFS
Test: Inhibition of recombinant human HDAC9 using Boc-Lys(TFA)-AMC as substrate preincubated for 10 mins followed by substrate addition and measured after 30 mins by fluorescence-based assay
pIC50: −log10 of the molar value.
readout_label: pIC50

1) O=C(NO)c1ccc(CN2CCCc3cc(Cl)ccc32)cc1 : 5.47
2) NC(=O)c1ccc2c(c1)CCCN2Cc1ccc(C(=O)NO)cc1 : 6.19

====

Target: UniProt Q9UBN7
Sequence (Q9UBN7 whole entry): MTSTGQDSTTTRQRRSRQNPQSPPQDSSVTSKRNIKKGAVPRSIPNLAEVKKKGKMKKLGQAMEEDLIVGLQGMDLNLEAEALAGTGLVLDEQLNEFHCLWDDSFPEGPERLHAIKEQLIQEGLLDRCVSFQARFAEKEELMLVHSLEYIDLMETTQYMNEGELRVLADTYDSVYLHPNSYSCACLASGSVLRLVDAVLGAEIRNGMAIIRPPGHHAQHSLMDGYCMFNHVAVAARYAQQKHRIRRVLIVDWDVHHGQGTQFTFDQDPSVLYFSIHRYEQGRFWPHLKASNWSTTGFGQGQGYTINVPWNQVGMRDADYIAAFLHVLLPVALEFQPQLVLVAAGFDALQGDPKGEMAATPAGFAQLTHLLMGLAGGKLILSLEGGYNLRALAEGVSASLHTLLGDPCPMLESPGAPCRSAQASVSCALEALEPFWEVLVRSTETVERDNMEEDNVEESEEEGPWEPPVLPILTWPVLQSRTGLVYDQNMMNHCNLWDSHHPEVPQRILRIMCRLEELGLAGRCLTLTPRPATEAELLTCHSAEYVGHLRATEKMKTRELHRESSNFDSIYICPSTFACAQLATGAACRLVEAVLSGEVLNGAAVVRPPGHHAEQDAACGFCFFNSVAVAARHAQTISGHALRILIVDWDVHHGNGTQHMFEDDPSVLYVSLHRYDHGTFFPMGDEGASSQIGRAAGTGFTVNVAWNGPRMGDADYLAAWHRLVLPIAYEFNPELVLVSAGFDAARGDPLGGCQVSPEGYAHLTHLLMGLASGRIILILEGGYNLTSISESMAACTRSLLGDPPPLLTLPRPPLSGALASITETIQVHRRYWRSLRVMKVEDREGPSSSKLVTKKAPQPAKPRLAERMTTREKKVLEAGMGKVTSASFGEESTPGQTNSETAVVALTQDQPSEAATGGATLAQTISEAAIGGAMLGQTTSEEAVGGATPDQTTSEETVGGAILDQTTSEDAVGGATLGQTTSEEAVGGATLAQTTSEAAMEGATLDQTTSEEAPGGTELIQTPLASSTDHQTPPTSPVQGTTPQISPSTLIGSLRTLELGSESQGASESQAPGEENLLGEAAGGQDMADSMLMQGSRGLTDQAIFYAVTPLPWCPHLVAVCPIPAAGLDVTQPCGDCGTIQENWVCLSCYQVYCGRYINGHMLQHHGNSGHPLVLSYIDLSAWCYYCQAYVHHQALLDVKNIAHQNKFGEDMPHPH
Test: biochemical
Description: Inhibition of full length recombinant N-terminal GST-tagged human HDAC6 expressed in baculovirus infected Sf9 insect cells using RHK-K(Ac)-AMC peptide as substrate measured after 90 mins by fluorimetry analysis
readout_label: IC50 (µM)

1. O=C(NO)c1ccc(CN2CCCc3ccccc32)cc1 : 11

====

This section presents compounds with their documented fold change (FC) values.
Target: Protein deacetylase HDAC6 (Mus musculus) (UniProt Q9Z2V5)
Sequence (Q9Z2V5 whole entry): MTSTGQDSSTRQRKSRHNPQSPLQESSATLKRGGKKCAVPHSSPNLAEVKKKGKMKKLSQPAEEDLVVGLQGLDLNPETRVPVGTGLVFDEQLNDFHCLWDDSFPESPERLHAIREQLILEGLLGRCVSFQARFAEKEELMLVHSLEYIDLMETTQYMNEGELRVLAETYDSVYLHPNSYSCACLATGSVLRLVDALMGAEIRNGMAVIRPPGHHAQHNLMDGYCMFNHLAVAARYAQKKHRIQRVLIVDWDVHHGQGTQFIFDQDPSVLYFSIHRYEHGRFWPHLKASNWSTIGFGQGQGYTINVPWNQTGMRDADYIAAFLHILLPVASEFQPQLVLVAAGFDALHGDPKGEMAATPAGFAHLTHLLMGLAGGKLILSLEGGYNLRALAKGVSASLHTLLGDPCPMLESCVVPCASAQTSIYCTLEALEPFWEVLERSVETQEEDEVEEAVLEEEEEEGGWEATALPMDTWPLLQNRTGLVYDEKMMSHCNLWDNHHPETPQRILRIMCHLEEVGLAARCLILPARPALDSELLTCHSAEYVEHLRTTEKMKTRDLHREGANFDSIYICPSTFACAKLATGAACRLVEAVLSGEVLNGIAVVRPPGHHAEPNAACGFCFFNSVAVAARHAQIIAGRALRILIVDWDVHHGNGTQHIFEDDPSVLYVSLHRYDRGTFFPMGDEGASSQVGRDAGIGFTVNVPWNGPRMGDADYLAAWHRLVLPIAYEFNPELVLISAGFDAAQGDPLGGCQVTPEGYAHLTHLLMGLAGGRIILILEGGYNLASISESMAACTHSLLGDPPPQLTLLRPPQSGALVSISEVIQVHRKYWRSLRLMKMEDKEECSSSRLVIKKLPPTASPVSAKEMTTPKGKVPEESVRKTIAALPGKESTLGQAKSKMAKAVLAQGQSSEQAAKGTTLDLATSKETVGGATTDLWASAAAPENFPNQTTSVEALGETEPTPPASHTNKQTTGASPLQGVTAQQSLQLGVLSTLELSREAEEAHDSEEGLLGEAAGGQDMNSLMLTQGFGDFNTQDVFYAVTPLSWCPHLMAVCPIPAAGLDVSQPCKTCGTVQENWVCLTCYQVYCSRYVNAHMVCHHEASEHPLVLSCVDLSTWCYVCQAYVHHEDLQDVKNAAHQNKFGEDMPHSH
Experiment: Inhibition of HDAC6 in mouse Neuro2a cells assessed as fold increase in ratio of acetylated alpha-tubulin to alpha tubulin at 1 uM incubated for overnight by Western blot analysis
Type: cell-based
Settings: time 12.0 hrs
readout_label: fold change (FC)

1) O=C(NO)c1ccc(CN2C(=O)CCCc3cc(Cl)ccc32)cc1 : 1.73
2) O=C(NO)c1ccc(CN2CCCCc3cc(Cl)ccc32)cc1 : 0.55
3) O=C(NO)c1ccc(CN2CCCc3cc(-c4cc[nH]n4)ccc32)cc1 : 2.14
